Molecular target: T1, thyroid stimulating hormone receptor (full length human TSHR) (human, UniProt P16473 22-764)
T1 construct: Full length TSHR coated onto plastic tubes (TSHR coated tubes, as in WO2004/050708A2); also called TSH receptor
Test: competitor ^125I-K1-70 IgG, TSHR coated tubes; 0.3 µg/mL in assay buffer
Documented Inhibition of binding (%) across a set of binders
Quantity: Inhibition of binding (%)

>>> reported_result("K1-18 IgG (antibody, V domains shown, Human IgG1 kappa purified from hetero-hybridoma supernatant; it is not part of the secreted protein; also called human monoclonal TSHR autoantibody K1-18 (stimulating)) VH: EVQLVQSGAEVKKPGESLKISCKGSGYSFTNYWIGWVRQMPGKGLEWMGIIYPYDSDTRYSPSFEGQVTISADKSIRTAYLHWSSLKASDTAMYYCVRPRDGSYPYDAFDIWGQGTMVTVSS VL: EIVLTQSPGTLSLSPGERATLSCRASQSVSNNYLAWYQQKPGQAPRLLIYGASSRATGIPDRFSGSGSGTDFTLTISRLEPEDFAVYYCQHCGSSLRAFGQGTKVEIKR")
86.4
>>> reported_result("K1-70 IgG (antibody, V domains shown, Human IgG1 lambda purified from hetero-hybridoma supernatant) VH: EVQLVQSGAEVKKPGQSLKISCKASGYSLTDNWIGWVRQKPGKGLEWMGIIYPGDSDTRYSPSFQGQVTISADKSINTAYLQWSSLKASDTAIYYCVGLDWNYNPLRYWGPGTLVTVSS VL: QSVLTQPPSVSAAPGQKVTISCSGSSSDIGSNYVSWYQQFPGTAPKLLIYDNNKRPSAIPDRFSGSKSGTSATLGITGLQTGDEADYYCGTWDSRLGIAVFGGGTQLTVLG")
89.2
>>> reported_result("K1-18 Fab (Fab, V domains shown) VH: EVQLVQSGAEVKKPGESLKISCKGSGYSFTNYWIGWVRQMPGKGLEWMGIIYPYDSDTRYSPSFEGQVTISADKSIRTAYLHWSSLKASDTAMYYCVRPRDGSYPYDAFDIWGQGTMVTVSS VL: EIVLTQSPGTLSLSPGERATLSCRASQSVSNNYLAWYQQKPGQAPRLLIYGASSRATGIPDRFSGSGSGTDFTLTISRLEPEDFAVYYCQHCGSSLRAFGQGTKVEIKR")
71.4
>>> reported_result("K1-70 Fab (Fab, V domains shown) VH: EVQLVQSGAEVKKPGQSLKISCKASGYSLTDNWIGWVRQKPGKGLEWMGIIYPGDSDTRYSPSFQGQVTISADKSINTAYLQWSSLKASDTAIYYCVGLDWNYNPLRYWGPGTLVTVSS VL: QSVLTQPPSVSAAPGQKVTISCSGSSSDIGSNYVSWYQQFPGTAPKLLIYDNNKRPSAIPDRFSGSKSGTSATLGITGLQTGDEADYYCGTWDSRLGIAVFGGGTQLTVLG")
88
